The values you see were collected from ChEMBL document CHEMBL1806376.

System: Staphylococcus aureus
Assay: Antibacterial activity against Staphylococcus aureus ATCC 25923 by broth microdilution method
Format: functional
Conditions: Staphylococcus aureus, ATCC 25923; read-out: MIC
result_type: MIC

molecule | observed_measurement
C[C@@H]1CCCCCCCCC[C@H](OC(=O)CCC(=O)OC(C)(C)C)C(=O)CC(N2CCN(C)CC2)C(=O)O1 (some centres not stated) | 4 mg/L
CO[C@H]1CCCCCCCCC[C@@H](C)OC(=O)C2CC2C1=O (mixture of isomers) | > 64 mg/L
Cc1nc2c([nH]1)CCCCCCCCC[C@@H](C)OC(=O)/C=C/2 | 32 mg/L
CO[C@H]1CCCCCCCCC[C@@H](C)OC(=O)CCC1=O | > 64 mg/L
CC(=O)N(CCOc1ccccc1)C1CC(=O)[C@@H](OC(=O)CCC(=O)OC(C)(C)C)CCCCCCCCC[C@@H](C)OC1=O (some centres not stated) | > 32 mg/L
COC1CCCCCCCCC[C@@H](C)NC(=O)/C=C/C1=O (single isomer, unassigned; diastereomer 1) | 1 mg/L
C[C@@H]1CCCCCCCCC[C@H](OC(=O)CCC(=O)OC(C)(C)C)C(=O)/C=C/C(=O)O1 | 8 mg/L
